- Tested on: Acholeplasma laidlawii
- test_description: Antimicrobial activity against Acholeplasma laidlawii PG-8A after 2 hrs
- Format: functional
- setup_conditions: Acholeplasma laidlawii, PG-8A, 2 h
Square brackets hold non-standard residues; d marks the D form. Peptide text beside a SMILES is read from it. Phe(ol) = N[C@H](CO)Cc1ccccc1; Aib = CC(C)(N)C(=O)O
measurement_kind: MIC (µM)
Answers are plain numbers, in µM.

Reference set, count: 2
molecule	readout_units	measured_result
CC[C@@](C)(NC(=O)C(C)(C)NC(=O)[C@H](C)NC(=O)[C@H](CO)NC(=O)C(C)(C)NC(C)=O)C(=O)N[C@@H](CCC(N)=O)C(=O)NC(C)(C)C(=O)N[C@H](C(=O)NC(C)(C)C(=O)NCC(=O)N[C@@H](CC(C)C)C(=O)NC(C)(C)C(=O)N1CCC[C@H]1C(=O)N[C@@H](CC(C)C)C(=O)NC(C)(C)C(=O)NC(C)(C)C(=O)N[C@@H](CCC(N)=O)C(=O)N[C@H](CO)Cc1ccccc1)C(C)C	µM	3.12
CC[C@@](C)(NC(=O)C(C)(C)NC(=O)[C@@H](NC(=O)[C@@H]1CCCN1C(=O)C(C)(C)NC(=O)[C@H](CC(C)C)NC(=O)CNC(=O)C(C)(C)NC(=O)[C@@H](NC(=O)C(C)(C)NC(=O)[C@H](CCC(N)=O)NC(=O)[C@H](C)NC(=O)C(C)(C)NC(=O)[C@H](C)NC(=O)C(C)(C)NC(=O)[C@H](C)NC(=O)C(C)(C)NC(C)=O)C(C)C)C(C)C)C(=O)N[C@@H](CCC(=O)O)C(=O)N[C@@H](CCC(N)=O)C(=O)N[C@H](CO)Cc1ccccc1	µM	1.56

Dear reader, for each entry below, please note its MIC.
1. CC(=O)NC(C)(C)C(=O)N[C@@H](C)C(=O)NC(C)(C)C(=O)N[C@@H](C)C(=O)NC(C)(C)C(=O)N[C@@H](C)C(=O)N[C@@H](CCC(N)=O)C(=O)NC(C)(C)C(=O)N[C@H](C(=O)NC(C)(C)C(=O)NCC(=O)N[C@@H](CC(C)C)C(=O)NC(C)(C)C(=O)N1CCC[C@H]1C(=O)N[C@H](C(=O)NC(C)(C)C(=O)NC(C)(C)C(=O)N[C@@H](CCC(=O)O)C(=O)N[C@@H](CCC(N)=O)C(=O)N[C@H](CO)Cc1ccccc1)C(C)C)C(C)C (Ac-[Aib]A[Aib]A[Aib]AQ[Aib]V[Aib]GL[Aib]PV[Aib][Aib]EQ[Phe(ol)])
2. CC[C@@](C)(NC(=O)C(C)(C)NC(=O)[C@@H](NC(=O)[C@@H]1CCCN1C(=O)C(C)(C)NC(=O)[C@H](CC(C)C)NC(=O)CNC(=O)C(C)(C)NC(=O)[C@@H](NC(=O)C(C)(C)NC(=O)[C@H](CCC(N)=O)NC(=O)C(C)(C)NC(=O)C(C)(C)NC(=O)[C@H](C)NC(=O)C(C)(C)NC(=O)[C@H](C)NC(=O)C(C)(C)NC(C)=O)C(C)C)C(C)C)C(=O)N[C@@H](CCC(N)=O)C(=O)N[C@@H](CCC(N)=O)C(=O)N[C@H](CO)Cc1ccccc1

Result:
[1.56, 0.78]

* * *

Answer each item with its documented MIC.
- Tested on: Spiroplasma floricola
- test_description: Antimicrobial activity against Spiroplasma floricola BNR1 after 2 hrs
- Format: functional
- setup_conditions: Spiroplasma floricola, BNR1, 2 h
Square brackets hold non-standard residues; d marks the D form. Peptide text beside a SMILES is read from it. Phe(ol) = N[C@H](CO)Cc1ccccc1; Aib = CC(C)(N)C(=O)O
Answers are plain numbers, in µM.

molecule	readout_units	measured_result
CC(=O)NC(C)(C)C(=O)N[C@@H](C)C(=O)NC(C)(C)C(=O)N[C@@H](C)C(=O)NC(C)(C)C(=O)N[C@@H](C)C(=O)N[C@@H](CCC(N)=O)C(=O)NC(C)(C)C(=O)N[C@H](C(=O)NC(C)(C)C(=O)NCC(=O)N[C@@H](CC(C)C)C(=O)NC(C)(C)C(=O)N1CCC[C@H]1C(=O)N[C@H](C(=O)NC(C)(C)C(=O)NC(C)(C)C(=O)N[C@@H](CCC(=O)O)C(=O)N[C@@H](CCC(N)=O)C(=O)N[C@H](CO)Cc1ccccc1)C(C)C)C(C)C (Ac-[Aib]A[Aib]A[Aib]AQ[Aib]V[Aib]GL[Aib]PV[Aib][Aib]EQ[Phe(ol)])	µM	12.5
CC[C@@](C)(NC(=O)C(C)(C)NC(=O)[C@H](C)NC(=O)[C@H](CO)NC(=O)C(C)(C)NC(C)=O)C(=O)N[C@@H](CCC(N)=O)C(=O)NC(C)(C)C(=O)N[C@H](C(=O)NC(C)(C)C(=O)NCC(=O)N[C@@H](CC(C)C)C(=O)NC(C)(C)C(=O)N1CCC[C@H]1C(=O)N[C@@H](CC(C)C)C(=O)NC(C)(C)C(=O)NC(C)(C)C(=O)N[C@@H](CCC(N)=O)C(=O)N[C@H](CO)Cc1ccccc1)C(C)C	µM	25
CC[C@@](C)(NC(=O)C(C)(C)NC(=O)[C@@H](NC(=O)[C@@H]1CCCN1C(=O)C(C)(C)NC(=O)[C@H](CC(C)C)NC(=O)CNC(=O)C(C)(C)NC(=O)[C@@H](NC(=O)C(C)(C)NC(=O)[C@H](CCC(N)=O)NC(=O)C(C)(C)NC(=O)C(C)(C)NC(=O)[C@H](C)NC(=O)C(C)(C)NC(=O)[C@H](C)NC(=O)C(C)(C)NC(C)=O)C(C)C)C(C)C)C(=O)N[C@@H](CCC(N)=O)C(=O)N[C@@H](CCC(N)=O)C(=O)N[C@H](CO)Cc1ccccc1	µM	6.25

Here is the next item to consider.
Request: If you can, please state the reported MIC value of "CC[C@@](C)(NC(=O)C(C)(C)NC(=O)[C@@H](NC(=O)[C@@H]1CCCN1C(=O)C(C)(C)NC(=O)[C@H](CC(C)C)NC(=O)CNC(=O)C(C)(C)NC(=O)[C@@H](NC(=O)C(C)(C)NC(=O)[C@H](CCC(N)=O)NC(=O)[C@H](C)NC(=O)C(C)(C)NC(=O)[C@H](C)NC(=O)C(C)(C)NC(=O)[C@H](C)NC(=O)C(C)(C)NC(C)=O)C(C)C)C(C)C)C(=O)N[C@@H](CCC(=O)O)C(=O)N[C@@H](CCC(N)=O)C(=O)N[C@H](CO)Cc1ccccc1" .
Result: 12.5
